- Target of assay: UniProt Q9Y233
- Assay notes: PDE10 enzyme inhibition, IMAP TR-FRET assay (MPDE10A7 Enzyme Activity and Inhibition)
- Format: biochemical
- Measurement conditions: IC50 class against PDE10; read-out: IC50
- Method: All compounds were divided in five classes based on their IC50 values against PDE10. The range of the IC50 in each class is as follows: An IMAP TR-FRET assay was used to analyze the enzyme activity (Molecular Devices Corp., Sunnyvale Calif.). […] The plates were read on an Envision (Perkin Elmer, Waltham, Mass.) for time resolved fluorescence resonance energy transfer. The data were analyzed with GraphPad Prism (La Jolla, Calif.). […]
pIC50: −log10 of the molar value.
Readout: pIC50

Smiles str | Target of assay | Readout | Result
CN(C)CC(=O)N1CCC(c2nccnc2Oc2ccc(Nc3nc4ccccc4s3)cc2)CC1 | UniProt Q9Y233 | pIC50 | > 7.60
COc1cnccc1-c1nccnc1Oc1ccc(Nc2nc3ccccc3s2)cc1 | UniProt Q9Y233 | pIC50 | > 7.60
COc1ncccc1-c1nccnc1Oc1ccc(C(=O)c2nc3ccccc3n2C)cc1 | UniProt Q9Y233 | pIC50 | > 7.60
O=C(c1ccc(Oc2nccnc2C(=O)NCCc2ccccn2)cc1)c1nc2ccccc2[nH]1 | UniProt Q9Y233 | pIC50 | > 7.60
c1ccc2sc(Nc3ccc(Oc4nccnc4-c4cccc5ncccc45)cc3)nc2c1 | UniProt Q9Y233 | pIC50 | 7.00 to 7.60
COc1cccc2nc(Nc3ccc(Oc4nccnc4C4CCOCC4)cc3)[nH]c12 | UniProt Q9Y233 | pIC50 | > 7.60
Fc1cc(-c2nccnc2Oc2ccc(Nc3nc4ccccc4s3)c(F)c2)ccn1 | UniProt Q9Y233 | pIC50 | 7.00 to 7.60
O=C(c1ccc(Oc2nccnc2C2CCN(CCF)CC2)cc1)c1nc2ccccc2[nH]1 | UniProt Q9Y233 | pIC50 | > 7.60

---

We begin with a simple list: items and their reported log10 of IC50.
- Target of assay: PDE10 (UniProt Q9Y233)
- Assay notes: PDE10 enzyme inhibition, IMAP TR-FRET assay (MPDE10A7 Enzyme Activity and Inhibition)
- Format: biochemical
- Measurement conditions: PDE10 enzyme inhibition; average IC50 data for each compound; read-out: Average IC50
- Experimental: All compounds were divided in five classes based on their IC50 values against PDE10. The range of the IC50 in each class is as follows: An IMAP TR-FRET assay was used to analyze the enzyme activity (Molecular Devices Corp., Sunnyvale Calif.). […] The plates were read on an Envision (Perkin Elmer, Waltham, Mass.) for time resolved fluorescence resonance energy transfer. The data were analyzed with GraphPad Prism (La Jolla, Calif.). […]
Readout: log10 of IC50 (log10 of the value in nM)

Molecule | Target of assay | Readout | Number
CN1CCC(c2nccnc2Oc2ccc(C(=O)c3nc4ccccc4[nH]3)cc2)CC1=O (stereo not drawn) [drawing 926] | PDE10 (UniProt Q9Y233) | log10 of IC50 | 0.78
O=C(c1ccc(Oc2nccnc2N2CC(O)C2)cc1)c1nc2ccccc2[nH]1 | PDE10 (UniProt Q9Y233) | log10 of IC50 | 0.84
Fc1ccc2nc(Nc3ccc(Oc4nccnc4C4CCOCC4)cc3)sc2c1 [drawing 872] | PDE10 (UniProt Q9Y233) | log10 of IC50 | -0.18
COc1ccc(COc2ncccc2-c2nccnc2Oc2ccc(C(=O)c3nc4ccccc4[nH]3)cc2)cc1 | PDE10 (UniProt Q9Y233) | log10 of IC50 | 1.04
COc1cccc(-c2nccnc2Oc2ccc(Nc3nc4ccccc4s3)cc2)c1 [drawing 740] | PDE10 (UniProt Q9Y233) | log10 of IC50 | 1.98
N#Cc1ccc(-c2nccnc2Oc2ccc(Nc3nc4ccccc4s3)cc2)cn1 [drawing 777] | PDE10 (UniProt Q9Y233) | log10 of IC50 | 1.80
O=C(c1ccc(Oc2nccnc2C(=O)NCCc2ccccn2)cc1)c1nc2ccccc2[nH]1 [drawing 795] | PDE10 (UniProt Q9Y233) | log10 of IC50 | 0.91
O=C(c1ccc(Oc2nccnc2Oc2ccccc2)cc1)c1nc2ccccc2[nH]1 [drawing 850] | PDE10 (UniProt Q9Y233) | log10 of IC50 | 3.33
COC(=O)N1CCC(c2nccnc2Oc2ccc(Nc3nc4ccccc4s3)cc2)CC1 | PDE10 (UniProt Q9Y233) | log10 of IC50 | -0.69

Values from patent US20120277209A1
